target: BSA (UniProt P02769); assay: scFv ELISA
Sequence (P02769 25-607 limits assumed): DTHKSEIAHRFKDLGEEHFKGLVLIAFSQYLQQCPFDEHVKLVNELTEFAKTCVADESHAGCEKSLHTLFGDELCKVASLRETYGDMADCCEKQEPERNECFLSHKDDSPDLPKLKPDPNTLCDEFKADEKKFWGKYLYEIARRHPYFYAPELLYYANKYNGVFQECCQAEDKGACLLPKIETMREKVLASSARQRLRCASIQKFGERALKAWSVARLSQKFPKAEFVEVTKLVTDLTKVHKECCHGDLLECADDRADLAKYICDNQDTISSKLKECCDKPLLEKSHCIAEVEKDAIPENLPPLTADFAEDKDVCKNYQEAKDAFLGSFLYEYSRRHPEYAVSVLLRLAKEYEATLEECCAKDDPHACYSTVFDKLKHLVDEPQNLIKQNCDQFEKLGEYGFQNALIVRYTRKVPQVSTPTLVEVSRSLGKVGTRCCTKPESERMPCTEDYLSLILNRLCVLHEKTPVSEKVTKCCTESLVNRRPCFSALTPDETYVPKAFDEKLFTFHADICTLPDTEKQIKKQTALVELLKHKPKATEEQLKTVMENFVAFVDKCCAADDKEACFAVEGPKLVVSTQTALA
Value Kind: OD450 (OD450)
Output spec: scalar in OD450, unitless text.

| Binder | Unit Text | OD450 |
| --- | --- | --- |
| PcOxP_DB01_B05 (scFv, V domains shown, scFv in periplasmic extract) VH: EVQLLESGGGLVQPGGSLRLSCAASGFTASDFYMEWVRQAPGKGLEWVAASRNKWNDYTTEYADSVKGRFTISRDNSKNTLYLQMNSLRAEDTAVYYCARDYYGSSYWYFDVWGQGTLVTVSS VL: DIQMTQSPSSLSASVGDRVTITCTASESLYSSKHKVHYLAWYQQKPGKAPKLLIYGASSLQIGVPSRFSGSGSGTDFTLTISSLQPEDFATYYCAQFYSYPLTFGGGTKVEIK | OD450 | 0.1 |

With those in mind, consider the next binder.
Which OD450 is listed for PcOxP_DB03_D08 (scFv, V domains shown, scFv in periplasmic extract) VH: EVQLLESGGGLVQPGGSLRLSCAASGFWFSDFYMEWVRQAPGKGLEWVAASRNKANDYTTEYADSVKGRFTISRDNSKNTLYLQMNSLRAEDTAVYYCARDYYGSAYWYFDVWGQGTLVTVSS VL: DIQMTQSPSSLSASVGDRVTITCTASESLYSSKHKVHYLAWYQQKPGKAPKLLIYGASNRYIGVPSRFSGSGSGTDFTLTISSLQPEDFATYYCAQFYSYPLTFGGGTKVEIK ? 0.1
